Data provenance: the supplement of paper PMC3334620

measured.on: Hap1 (UniProt P0CE41)
Sequence (P0CE41 whole entry): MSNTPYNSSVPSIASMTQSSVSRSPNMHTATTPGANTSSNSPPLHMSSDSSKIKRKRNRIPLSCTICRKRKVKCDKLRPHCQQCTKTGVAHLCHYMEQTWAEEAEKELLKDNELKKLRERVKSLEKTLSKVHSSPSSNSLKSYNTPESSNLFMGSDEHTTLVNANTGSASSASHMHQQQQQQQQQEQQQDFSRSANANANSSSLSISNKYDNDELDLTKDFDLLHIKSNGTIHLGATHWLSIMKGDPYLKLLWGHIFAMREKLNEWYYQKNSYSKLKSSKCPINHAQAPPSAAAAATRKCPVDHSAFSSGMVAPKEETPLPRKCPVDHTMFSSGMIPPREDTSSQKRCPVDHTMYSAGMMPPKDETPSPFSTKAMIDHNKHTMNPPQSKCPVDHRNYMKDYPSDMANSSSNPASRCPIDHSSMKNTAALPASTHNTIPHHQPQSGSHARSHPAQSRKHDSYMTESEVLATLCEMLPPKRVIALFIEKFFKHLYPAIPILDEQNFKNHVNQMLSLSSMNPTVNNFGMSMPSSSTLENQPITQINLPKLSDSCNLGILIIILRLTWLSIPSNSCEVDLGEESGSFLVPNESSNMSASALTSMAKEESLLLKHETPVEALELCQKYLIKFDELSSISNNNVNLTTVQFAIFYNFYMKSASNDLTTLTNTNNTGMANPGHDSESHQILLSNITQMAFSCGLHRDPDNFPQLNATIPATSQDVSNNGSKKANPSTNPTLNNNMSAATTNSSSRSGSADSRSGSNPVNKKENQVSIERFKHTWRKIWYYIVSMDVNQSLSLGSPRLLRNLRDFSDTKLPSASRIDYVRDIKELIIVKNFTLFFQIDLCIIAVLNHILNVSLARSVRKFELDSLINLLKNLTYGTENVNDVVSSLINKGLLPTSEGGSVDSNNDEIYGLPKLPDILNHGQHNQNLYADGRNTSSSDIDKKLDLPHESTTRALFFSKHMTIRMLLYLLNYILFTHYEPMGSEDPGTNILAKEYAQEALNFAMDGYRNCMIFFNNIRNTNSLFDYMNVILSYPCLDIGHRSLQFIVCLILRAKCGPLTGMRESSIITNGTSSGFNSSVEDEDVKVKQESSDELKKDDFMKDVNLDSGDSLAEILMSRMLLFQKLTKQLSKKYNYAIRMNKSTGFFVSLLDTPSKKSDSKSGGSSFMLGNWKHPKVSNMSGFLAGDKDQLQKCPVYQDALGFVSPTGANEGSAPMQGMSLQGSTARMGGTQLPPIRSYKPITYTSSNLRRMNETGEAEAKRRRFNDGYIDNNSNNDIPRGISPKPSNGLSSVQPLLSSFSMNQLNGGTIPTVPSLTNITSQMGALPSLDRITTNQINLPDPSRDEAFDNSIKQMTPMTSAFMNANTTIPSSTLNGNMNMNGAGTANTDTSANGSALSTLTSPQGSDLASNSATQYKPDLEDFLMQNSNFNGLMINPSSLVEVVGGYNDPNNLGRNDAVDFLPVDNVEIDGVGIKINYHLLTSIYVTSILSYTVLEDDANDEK
assay.name: PBM E-score (8-mer binding enrichment) (E-score (-0.5 to 0.5)); higher = stronger / more preferred TF binding
assay.conditions: protein concentration: 200 nM; construct: GST-DNA-binding domain
The full ranking holds about 33,000 sequences; the median of “E-score (-0.5 to 0.5)” is about -0.053, and the highest 2% start at about 0.37. For the sample, the highest values were picked, then their nearest neighbours and some sequences at random.
Documented PBM E-score across a set of sequences

residue.string: CGGGATTC
measured.on: Hap1 (UniProt P0CE41)
PBM E-score: 0.292
--
residue.string: AACGGATT
measured.on: Hap1 (UniProt P0CE41)
PBM E-score: 0.338
--
residue.string: CGGGCCTA
measured.on: Hap1 (UniProt P0CE41)
PBM E-score: 0.383
--
residue.string: CGCGGATA
measured.on: Hap1 (UniProt P0CE41)
PBM E-score: 0.309
--
residue.string: CGTTCGGC
measured.on: Hap1 (UniProt P0CE41)
PBM E-score: 0.291
--
residue.string: CGCGCCGA
measured.on: Hap1 (UniProt P0CE41)
PBM E-score: 0.317
--
residue.string: CGGGCCTC
measured.on: Hap1 (UniProt P0CE41)
PBM E-score: 0.192
--
residue.string: CGGTCCGC
measured.on: Hap1 (UniProt P0CE41)
PBM E-score: 0.317
--
residue.string: CGACCGAA
measured.on: Hap1 (UniProt P0CE41)
PBM E-score: 0.378
--
residue.string: GGGTCCAA
measured.on: Hap1 (UniProt P0CE41)
PBM E-score: 0.15
--
residue.string: AACCGGCA
measured.on: Hap1 (UniProt P0CE41)
PBM E-score: 0.158
--
residue.string: CCCGAGAA
measured.on: Hap1 (UniProt P0CE41)
PBM E-score: 0.351
--
residue.string: CTTGCACA
measured.on: Hap1 (UniProt P0CE41)
PBM E-score: -0.136
--
residue.string: ACTGTCAG
measured.on: Hap1 (UniProt P0CE41)
PBM E-score: -0.224
--
residue.string: CTCGGGTA
measured.on: Hap1 (UniProt P0CE41)
PBM E-score: 0.264
--
residue.string: AACCGGCG
measured.on: Hap1 (UniProt P0CE41)
PBM E-score: 0.382
--
residue.string: CAGTGCCC
measured.on: Hap1 (UniProt P0CE41)
PBM E-score: 0.00772
--
residue.string: GTCGGATA
measured.on: Hap1 (UniProt P0CE41)
PBM E-score: 0.339
--
residue.string: GACCTCTC
measured.on: Hap1 (UniProt P0CE41)
PBM E-score: 0.0308
--
residue.string: CGGTCCGA
measured.on: Hap1 (UniProt P0CE41)
PBM E-score: 0.435
--
residue.string: ATCTCGGC
measured.on: Hap1 (UniProt P0CE41)
PBM E-score: 0.379
--
residue.string: AGAGGGGA
measured.on: Hap1 (UniProt P0CE41)
PBM E-score: -0.0354
--
residue.string: AACGGATA
measured.on: Hap1 (UniProt P0CE41)
PBM E-score: 0.398
--
residue.string: AAGAAACA
measured.on: Hap1 (UniProt P0CE41)
PBM E-score: 0.00593
--
residue.string: AGGTCCTG
measured.on: Hap1 (UniProt P0CE41)
PBM E-score: -0.0186
--
residue.string: CCCCGCTC
measured.on: Hap1 (UniProt P0CE41)
PBM E-score: 0.0426
--
residue.string: GTCAGCAA
measured.on: Hap1 (UniProt P0CE41)
PBM E-score: -0.157
--
residue.string: ATCTCGGA
measured.on: Hap1 (UniProt P0CE41)
PBM E-score: 0.385
--
residue.string: CCGGCCAG
measured.on: Hap1 (UniProt P0CE41)
PBM E-score: 0.351
--
residue.string: AGTTCGGA
measured.on: Hap1 (UniProt P0CE41)
PBM E-score: 0.366
--
residue.string: GACGCACC
measured.on: Hap1 (UniProt P0CE41)
PBM E-score: -0.118
--
residue.string: CGACCGGC
measured.on: Hap1 (UniProt P0CE41)
PBM E-score: 0.232
--
residue.string: AACTTTTG
measured.on: Hap1 (UniProt P0CE41)
PBM E-score: -0.0532
--
residue.string: CTCGGATC
measured.on: Hap1 (UniProt P0CE41)
PBM E-score: 0.383
--
residue.string: AAATCCCT
measured.on: Hap1 (UniProt P0CE41)
PBM E-score: -0.166
--
residue.string: CGGCTATA
measured.on: Hap1 (UniProt P0CE41)
PBM E-score: 0.383
--
residue.string: CCGGCCGC
measured.on: Hap1 (UniProt P0CE41)
PBM E-score: 0.299
--
residue.string: AGCGCCGA
measured.on: Hap1 (UniProt P0CE41)
PBM E-score: 0.372
--
residue.string: TCCTGCCA
measured.on: Hap1 (UniProt P0CE41)
PBM E-score: -0.12
--
residue.string: ACCGAGCG
measured.on: Hap1 (UniProt P0CE41)
PBM E-score: 0.384
--
residue.string: AGTGCCAT
measured.on: Hap1 (UniProt P0CE41)
PBM E-score: -0.0559
--
residue.string: CGGTCCTA
measured.on: Hap1 (UniProt P0CE41)
PBM E-score: 0.33
--
residue.string: CGTTCGGA
measured.on: Hap1 (UniProt P0CE41)
PBM E-score: 0.412
--
residue.string: AAACGGAG
measured.on: Hap1 (UniProt P0CE41)
PBM E-score: 0.258
--
residue.string: CTACCGAG
measured.on: Hap1 (UniProt P0CE41)
PBM E-score: 0.139
--
residue.string: CGGGCCCA
measured.on: Hap1 (UniProt P0CE41)
PBM E-score: 0.26
--
residue.string: CGCGCGAC
measured.on: Hap1 (UniProt P0CE41)
PBM E-score: 0.2
--
residue.string: AAATCCAG
measured.on: Hap1 (UniProt P0CE41)
PBM E-score: 0.0422
--
residue.string: AGGTCCGC
measured.on: Hap1 (UniProt P0CE41)
PBM E-score: 0.33
--
residue.string: ACCGAGCA
measured.on: Hap1 (UniProt P0CE41)
PBM E-score: 0.359
--
residue.string: AGGTCCCA
measured.on: Hap1 (UniProt P0CE41)
PBM E-score: -0.174
--
residue.string: CACGGATA
measured.on: Hap1 (UniProt P0CE41)
PBM E-score: 0.298
--
residue.string: ATCAACAT
measured.on: Hap1 (UniProt P0CE41)
PBM E-score: -0.109
--
residue.string: GCCGAGGA
measured.on: Hap1 (UniProt P0CE41)
PBM E-score: 0.294
--
residue.string: TCCGAGAA
measured.on: Hap1 (UniProt P0CE41)
PBM E-score: 0.381
--
residue.string: ACGCTCGA
measured.on: Hap1 (UniProt P0CE41)
PBM E-score: -0.125
--
residue.string: GCCAGGAA
measured.on: Hap1 (UniProt P0CE41)
PBM E-score: -0.262
--
residue.string: CCCGAGGA
measured.on: Hap1 (UniProt P0CE41)
PBM E-score: 0.192
--
residue.string: AGGGGGAC
measured.on: Hap1 (UniProt P0CE41)
PBM E-score: -0.213
--
residue.string: GGACCGGA
measured.on: Hap1 (UniProt P0CE41)
PBM E-score: 0.406
--
residue.string: ACGAAATC
measured.on: Hap1 (UniProt P0CE41)
PBM E-score: 0.0404
--
residue.string: ACGAACCA
measured.on: Hap1 (UniProt P0CE41)
PBM E-score: -0.038
--
residue.string: AGACCGAG
measured.on: Hap1 (UniProt P0CE41)
PBM E-score: 0.373
--
residue.string: AGAATCAT
measured.on: Hap1 (UniProt P0CE41)
PBM E-score: -0.259
--
residue.string: GGTTCGAA
measured.on: Hap1 (UniProt P0CE41)
PBM E-score: 0.00151
--
residue.string: CGTGCGAC
measured.on: Hap1 (UniProt P0CE41)
PBM E-score: -0.0831
--
residue.string: AAGTGACA
measured.on: Hap1 (UniProt P0CE41)
PBM E-score: -0.105
--
residue.string: AAGTTATT
measured.on: Hap1 (UniProt P0CE41)
PBM E-score: 0.0401
--
residue.string: CGCCATCC
measured.on: Hap1 (UniProt P0CE41)
PBM E-score: -0.00934
--
residue.string: AAAGAGCC
measured.on: Hap1 (UniProt P0CE41)
PBM E-score: -0.12
--
residue.string: CCGAAATA
measured.on: Hap1 (UniProt P0CE41)
PBM E-score: 0.351
--
residue.string: ACGCTCGG
measured.on: Hap1 (UniProt P0CE41)
PBM E-score: 0.375
--
residue.string: AAATCCGG
measured.on: Hap1 (UniProt P0CE41)
PBM E-score: 0.475
--
residue.string: GGACCGCA
measured.on: Hap1 (UniProt P0CE41)
PBM E-score: 0.186
--
residue.string: CACCGGCG
measured.on: Hap1 (UniProt P0CE41)
PBM E-score: 0.378
--
residue.string: CCACCGAG
measured.on: Hap1 (UniProt P0CE41)
PBM E-score: 0.14
--
residue.string: AGGGATGA
measured.on: Hap1 (UniProt P0CE41)
PBM E-score: -0.133
--
residue.string: ACGGCCAA
measured.on: Hap1 (UniProt P0CE41)
PBM E-score: 0.166
--
residue.string: GGGTCCGA
measured.on: Hap1 (UniProt P0CE41)
PBM E-score: 0.38
--
residue.string: AGGTCCGG
measured.on: Hap1 (UniProt P0CE41)
PBM E-score: 0.396
--
residue.string: ATCTGCCG
measured.on: Hap1 (UniProt P0CE41)
PBM E-score: 0.318
--
residue.string: CCGAAATC
measured.on: Hap1 (UniProt P0CE41)
PBM E-score: 0.401
--
residue.string: CGGGCCCG
measured.on: Hap1 (UniProt P0CE41)
PBM E-score: 0.419
--
residue.string: ACCGAGCT
measured.on: Hap1 (UniProt P0CE41)
PBM E-score: 0.294
--
residue.string: TGTCGAAA
measured.on: Hap1 (UniProt P0CE41)
PBM E-score: -0.229
--
residue.string: CCGGCCGG
measured.on: Hap1 (UniProt P0CE41)
PBM E-score: 0.456
--
residue.string: AAAGAAGA
measured.on: Hap1 (UniProt P0CE41)
PBM E-score: -0.0993
--
residue.string: CGAACCAG
measured.on: Hap1 (UniProt P0CE41)
PBM E-score: -0.00442
--
residue.string: AAATCCTG
measured.on: Hap1 (UniProt P0CE41)
PBM E-score: -0.118
--
residue.string: AGACTGAG
measured.on: Hap1 (UniProt P0CE41)
PBM E-score: -0.208
--
residue.string: AGGGATTA
measured.on: Hap1 (UniProt P0CE41)
PBM E-score: -0.136
